- PROTOCOL NOTES: Cytotoxicity against bovine chondrocytes at 1 mM after 96 hrs by MTT cell viability assay
- Assay type: cell-based, Bos taurus
- MEASUREMENT SETUP: cattle, 1000 µM
Reported Activity is given for each of the following compounds.
The reply should contain only the number, in %.

CCOC(=O)[C@H](C)NP(=O)(OC[C@H]1OC(O)[C@H](NC(C)=O)[C@@H](O)[C@@H]1O)Oc1ccc(OC)cc1 (stereo partly drawn)
76
COc1ccc(OP(=O)(N[C@H](C(=O)OCc2ccccc2)C(C)C)OC[C@H]2OC(O)[C@H](NC(C)=O)[C@@H](O)[C@@H]2O)cc1 (stereo partly drawn)
100

Given the entry COc1ccc(OP(=O)(N[C@@H](CC(C)C)C(=O)OCc2ccccc2)OC[C@H]2OC(O)[C@H](NC(C)=O)[C@@H](O)[C@@H]2O)cc1 (stereo partly drawn) , report its measured Activity. 20

* * *

Reported fold change (FC) is given for each of the following compounds.
- PROTOCOL NOTES: Chondroprotective activity in bovine articular cartilage explant cultures assessed as reduction in IL1-induced glycosaminoglycan release at 0.1 mM after 96 hrs
- Format: functional, Bos taurus
No unit in the answer, please; the number alone is enough.

Here are 2 compounds together with their reported answers.
CCCCOC(=O)[C@@H]1CCCN1P(=O)(OC[C@H]1OC(O)[C@H](NC(C)=O)[C@@H](O)[C@@H]1O)Oc1ccc(OC)cc1 (stereo partly drawn)
4.1
CC[C@H](C)[C@H](NP(=O)(OC[C@H]1OC(O)[C@H](NC(C)=O)[C@@H](O)[C@@H]1O)Oc1ccc(OC)cc1)C(=O)OCc1ccccc1 (stereo partly drawn)
3.9

Below: the item to evaluate.
Given the entry COc1ccc(OP(=O)(N[C@H](C(=O)OCc2ccccc2)C(C)C)OC[C@H]2OC(O)[C@H](NC(C)=O)[C@@H](O)[C@@H]2O)cc1 (stereo partly drawn) , report its measured fold change (FC). 4

* * *

- PROTOCOL NOTES: Cytotoxicity against bovine chondrocytes at 0.1 mM after 96 hrs by MTT cell viability assay
- Format: cell-based, Bos taurus
- MEASUREMENT SETUP: cattle, 100 µM
RESULT TYPE: Activity (%)
The reply should contain only the number, in %.

Given the entry COc1ccc(OP(=O)(N[C@H](C(=O)OC(C)C)C(C)C)OC[C@H]2OC(O)[C@H](NC(C)=O)[C@@H](O)[C@@H]2O)cc1 (some centres not stated) , report its measured Activity. 93

Given the entry COc1ccc(OP(=O)(N[C@@H](C)C(=O)OCc2ccccc2)OC[C@H]2OC(O)[C@H](NC(C)=O)[C@@H](O)[C@@H]2O)cc1 (some centres not stated) , report its measured Activity. 104

Given the entry COc1ccc(OP(=O)(N[C@H](C)C(=O)OCc2ccccc2)OC[C@H]2OC(O)[C@H](NC(C)=O)[C@@H](O)[C@@H]2O)cc1 (some centres not stated) , report its measured Activity. 96

Given the entry N[C@H]1C(O)O[C@H](CO)[C@@H](O)[C@@H]1O (some centres not stated) , report its measured Activity. 106

Given the entry CCOC(=O)CN(C)P(=O)(OC[C@H]1OC(O)[C@H](NC(C)=O)[C@@H](O)[C@@H]1O)Oc1ccc(OC)cc1 (some centres not stated) , report its measured Activity. 100

Given the entry "CC(=O)N[C@@H]1[C@@H](O)[C@H](O)[C@@H](CO)O[C@H]1O" , report its measured Activity. 107

Given the entry CCCCOC(=O)[C@@H]1CCCN1P(=O)(OC[C@H]1OC(O)[C@H](NC(C)=O)[C@@H](O)[C@@H]1O)Oc1ccc(OC)cc1 (some centres not stated) , report its measured Activity. 98

Source listed as ChEMBL document CHEMBL1140054.
